SYSTEM: Cytochrome P450 3A4 (Homo sapiens)
ASSAY PROTOCOL: CYP1A2, 2C9, 2D6, 3A4 inhibition – biochemical, LC-MS, ADME assay for V1a-R antagonist project, late-stage follow-up (AID 743029)
ASSAY CONDITIONS: human CYP isoforms, marker substrate metabolism, CYP3A4, at 10 µM, stronger effect = higher value
RECORDED ENDPOINT: inhibition (%)
Just the number in %, nothing appended.

// map "O=C(C1CCN(c2ccc(Cl)cn2)CC1)N(CC1CC1)c1ccc(Cl)cc1" to recorded inhibition (system: Cytochrome P450 3A4 (Homo sapiens))
-5
